Target: dAsCas12a S542R (Acidaminococcus sp., UniProt U2UMQ6 1-1307, S542R;D908A;E993A;D1235A)
Assay: Spec-seq (native PAGE EMSA with sequencing of bound and unbound); 25 mM Tris-HCl pH 7.4, 150 mM KCl, 5 mM MgCl2, 10% glycerol, 1 mM DTT, 40 ng/uL salmon sperm DNA; 400 nM Cas12a, 480 nM crRNA, 50 nM library, 37 C 1 h; native PAGE at room temperature; high values mean tight binding;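 further: relative affinity from the bound to unbound sequence frequency ratio in Spec-seq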
Details: protein: recombinant
observed-property: binding signal (lnKA)
Supply the numeric figure in lnKA, leaving out any unit text.

Request: I'd like to know its binding signal. The binder in question is TAGT (dsDNA) DNA 1: GCTATCTAGTGCTCAGTACGCACTGTAGTAGGAAACTTCTGGCAGGACCAGGTCATGAGATCGGAAGAGCACACGTCTGAACTCCAGTCA DNA 2: TGACTGGAGTTCAGACGTGTGCTCTTCCGATCTCATGACCTGGTCCTGCCAGAAGTTTCCTACTACAGTGCGTACTGAGCACTAGATAGC RNA: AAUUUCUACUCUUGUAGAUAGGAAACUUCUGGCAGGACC
Response: -8.48

Request: I'd like to know its binding signal. The binder in question is CGAG (dsDNA) DNA 1: GCTATCTAGTGCTCAGTACGCACTGCGAGAGGAAACTTCTGGCAGGACCAGGTCATGAGATCGGAAGAGCACACGTCTGAACTCCAGTCA DNA 2: TGACTGGAGTTCAGACGTGTGCTCTTCCGATCTCATGACCTGGTCCTGCCAGAAGTTTCCTCTCGCAGTGCGTACTGAGCACTAGATAGC RNA: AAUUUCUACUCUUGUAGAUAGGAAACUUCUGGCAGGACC
Response: -8.83
